meta.source: PubChem BioAssay (NCI)

- System: MDA-MB-435 melanoma
- test description: NCI-60 one-dose screen, 48 h
- measurement conditions: 10 µM unless noted
This is part of a sample that, as a whole, favours compounds with a hit. Of some 83,000 tested, about 20% had one in any assay. Active and inactive are the calls of the source. How the source made its calls: active means growth percent below 10; inactive means the rest.
Outcome codes: active, inactive

{"columns": ["molecule", "target desc", "classification"],
 "data": [
  ["CS(=O)(=O)Nc1cc(-c2ccc3ncc(C#N)c(NCc4cccc(F)c4)c3c2)cnc1Cl", "MDA-MB-435 melanoma", "active"],
  ["CNC(=O)c1cc(-n2ccc3cc(NC(=O)Nc4ccc(N5CCOCC5)c(C(F)(F)F)c4)ccc32)ccn1", "MDA-MB-435 melanoma", "inactive"],
  ["COc1cc(-c2nc3sccn3c2-c2ccnc(S(C)(=O)=O)n2)ccc1F", "MDA-MB-435 melanoma", "inactive"],
  ["CCOC(=O)c1c(NC(=O)c2ccccc2C(F)(F)F)sc2c1CCC(=O)C2", "MDA-MB-435 melanoma", "inactive"],
  ["CC(=O)C1=C(C)NC(NNC(N)=S)=NC1c1ccccc1 (stereo not given)", "MDA-MB-435 melanoma", "inactive"]
]}

* * *

- Tested on: HT29 colon
- test description: NCI-60 one-dose screen, 48 h (100 = growth as untreated, 0 = no growth, -100 = all killed)
- measurement conditions: 10 µM unless noted
This is part of a sample that, as a whole, favours compounds with a hit. Of some 83,000 tested, about 20% had one in any assay.
metric: growth (%)

{"columns": ["molecule", "metric", "measured"],
 "data": [
  ["CNc1ncc2cc(-c3ccc(-c4ncccc4F)cc3Cl)c(=O)n(CC3OCC(N)CO3)c2n1 (stereo not given)", "growth", 48.1],
  ["CCCCCc1ccc(S(=O)(=O)Nc2cc(-c3csc(NC(=O)CN4CCN(CCO)CC4)n3)ccc2OC)cc1", "growth", 4.51],
  ["Cn1ccnc1C(=O)/C=C/c1ccc(NC(=O)c2ccc(F)cc2)cc1", "growth", 7.13],
  ["COc1c(N2CC3CCCNC3C2)c(F)cc2c(=O)c(C(=O)N/N=C/c3ccccc3)cn(C3CC3)c12 (stereo not given)", "growth", 72.6],
  ["COc1ccc(C2c3sc4c(C)cccc4c3Oc3nc(CC(=O)Nc4ccccc4)[nH]c(=O)c32)cc1 (stereo not given)", "growth", 94.1]
]}

* * *

- System: U251 CNS
- test description: NCI-60 one-dose screen, 48 h (100 = growth as untreated, 0 = no growth, -100 = all killed)
- measurement conditions: 10 µM unless noted
This is part of a sample that, as a whole, favours compounds with a hit. Of some 83,000 tested, about 20% had one in any assay.
Rule: measured growth below 40% gets T; anything equal to or greater than 40% gets F.

{"columns": ["compound", "classification"],
 "data": [
  ["O=C1CCCC2=C1C(c1c[nH]c3ccc(Br)cc13)Cc1cc(Br)ccc1N2 (centres undefined)", "T"],
  ["C=C(C)[C@@H]1CC[C@]2(C(=O)NCCCCCN(CCC#N)CCC#N)CC[C@]3(C)[C@H](CC[C@@H]4[C@@]5(C)CCC(=O)C(C)(C)[C@@H]5CC[C@]43C)[C@@H]12", "F"],
  ["CS(=O)(=O)c1ccc(-n2cc(/C=N/O)c(-c3ccccc3)n2)cc1", "F"],
  ["NC(N)=Nc1ccc(Oc2cccc(Nc3ccc(Br)c(C(F)(F)F)c3)c2)cn1", "T"],
  ["O=C(CCn1c[n+](CC(=O)c2ccc(F)cc2)c2ccccc21)Nc1cccc2cccnc12", "F"],
  ["O=C(Nc1ccc(N=Cc2c(O)[nH]c3ccccc23)cc1)Nc1nccs1", "F"],
  ["COc1cc(C2N=C(NNc3ccccc3)NC(C)=C2C(C)=O)ccc1O (centres undefined)", "F"],
  ["Cn1ccnc1C(=O)/C=C/c1ccc(NC(=O)c2c(F)c(F)c(F)c(F)c2F)cc1", "F"],
  ["N#Cc1cccc(NC(=O)c2cc(-c3ccc(F)cc3F)ccc2O)c1", "T"],
  ["O=C1[C@@H]2Cc3c([nH]c4ccccc34)[C@H](c3c(Cl)cccc3Cl)N2C(=O)CN1C1CCN(CC2CCCCC2)CC1", "F"],
  ["C#C[C@]1(O)CC[C@H]2[C@@H]3CC=C4c5sc(-c6ccc7c(c6)OCO7)nc5CC[C@]4(C)[C@H]3CC[C@@]21C", "T"],
  ["CCOC(=O)c1c(Nc2ccccc2)nn2c(-c3ccccc3)ccnc12", "F"],
  ["COc1ccc(-c2cc(-c3ccc(Cl)cc3)c(C#N)c(=O)n2Cc2ccc(C(=O)O)cc2)cc1", "F"],
  ["COc1cc(OC)c(/C=C/S(=O)(=O)Cc2ccc(OC)c(NCC(=O)NO)c2)c(OC)c1", "T"],
  ["C[C@@H](Nc1ncnc2ccc(-c3cnc(Cl)c(NS(C)(=O)=O)c3)cc12)c1ccccc1", "F"],
  ["O=C(O)c1cn(C2CC2)c2cc(N3CCN(C(=O)CN4C(=O)CSC4=O)CC3)c(F)cc2c1=O", "F"],
  ["NS(=O)(=O)c1ccc(Nc2nc(N/N=C/CCc3ccccc3)nc(Nc3ccccc3)n2)cc1", "F"],
  ["CC(=O)N1C(=S)NC(=O)C1CC(C)C (centres undefined)", "F"],
  ["COc1ccc(-n2c(SCc3n[nH]c(=S)o3)nc3ccc(Cl)cc3c2=O)cc1", "F"]
]}

* * *

- Tested on: NCI-H460 lung
- test description: NCI-60 one-dose screen, 48 h
- measurement conditions: 10 µM unless noted
Compounds without any hit were thinned out: in the full panel of roughly 83,000, 20% have a hit. The source made the active and inactive calls. Rule for the calls: active = growth percent below 10; inactive = the rest.
Outcome codes: active, inactive

{"columns": ["molecule", "target desc", "classification"],
 "data": [
  ["Cc1ccc(S(=O)(=O)NCCNc2nc(Nc3ccc(N4CCN(C)CC4)cc3)nc3ccsc23)cc1", "NCI-H460 lung", "inactive"],
  ["COc1cc(-c2nn(C(C)(C)C)cc2-c2ccnc(NCCCNS(=O)(=O)c3ccc(C)cc3)n2)ccc1Cl", "NCI-H460 lung", "inactive"],
  ["CC1(C)[C@@H](O)CC[C@]2(C)[C@H]3CC[C@@H]4[C@H]5[C@H](C(=O)/C=C\\c6ccccn6)CC[C@]5(O)CC[C@@]4(C)[C@]3(C)CC[C@@H]12", "NCI-H460 lung", "inactive"],
  ["COc1cc(OC)c(S(N)(=O)=O)cc1C(C)=O", "NCI-H460 lung", "inactive"],
  ["COc1ccc2c(c1)Oc1nc(N)c(C#N)c(N)c1C2Sc1ccc(C)cc1 (centres undefined)", "NCI-H460 lung", "active"],
  ["CCOC(=O)C1=NNC(c2ccc(Cl)cc2)C1C(=O)N1C(=S)NC(=O)C1CC(C)C (centres undefined)", "NCI-H460 lung", "inactive"],
  ["NS(=O)(=O)c1ccc(-n2cc(CN3CCNCC3)nn2)cc1", "NCI-H460 lung", "inactive"],
  ["O=C1CC(=O)N2CSCN(C(c3ccccc3)c3nc4ncncc4[nH]3)C2=N1 (centres undefined)", "NCI-H460 lung", "inactive"],
  ["CCO/C=N/C1=C(C#N)C(c2ccc(Cl)cc2)c2sc3c(CC)cccc3c2O1 (centres undefined)", "NCI-H460 lung", "active"],
  ["O=C(NNc1nc2cc(F)ccc2n2c(CN3CCCC3)ccc12)c1cnccn1", "NCI-H460 lung", "active"],
  ["COc1ccccc1N1CCN(C2=CC(=O)C(C)=C(C)C2=O)CC1", "NCI-H460 lung", "inactive"],
  ["C=CCn1c(SCC(=O)Nc2ccc(C(=O)/C=C/c3cccc([N+](=O)[O-])c3)cc2)nnc1-c1c[nH]c2ccccc12", "NCI-H460 lung", "inactive"],
  ["O=C(c1ccc(O)cc1)[C@@H]1CN[C@@]2(C(=O)Nc3ccccc32)[C@H]1c1ccc(F)cc1", "NCI-H460 lung", "inactive"],
  ["Cc1ccc(N2C(=O)/C(=C/C=C/c3ccco3)SC2=S)cc1", "NCI-H460 lung", "inactive"],
  ["CCCn1cnc2c(c1=N)C(c1ccc(F)cc1)c1sc3c(C)cccc3c1O2 (centres undefined)", "NCI-H460 lung", "active"],
  ["O=C1Nc2ccccc2/C1=C/c1ccc(COCC2CO2)n1-c1ccc(O)cc1 (centres undefined)", "NCI-H460 lung", "inactive"],
  ["COc1cc2nc(Cl)nc(Nc3cccc(C4=Nc5c(N)nc(N)nc5NC(c5ccc(F)cc5)C4)c3)c2cc1OC (centres undefined)", "NCI-H460 lung", "inactive"],
  ["CN1CCN(c2ccc(/C=N/Nc3nc4ccccc4c(=O)n3-c3ccccc3)cc2)CC1", "NCI-H460 lung", "inactive"],
  ["CNC(=O)c1cc(-n2ccc3cc(NC(=O)Nc4ccc(N5CCOCC5)c(C(F)(F)F)c4)ccc32)ccn1", "NCI-H460 lung", "inactive"]
]}
